- subject-of-test: recombinant hTREX1(1-242)WT (hT1) (Homo sapiens, UniProt Q9NSU2)
- Construct: recombinant hTREX1(1-242)^WT
- run-description: fluorescence-based exonuclease assay, hTREX1 IC50 and HTS
- Assay type: biochemical
- test-context: median of three independent experiments; read-out: Median IC50
Kindly supply the reported pIC50 values for the records listed here.
The value called pIC50 is obtained by taking minus log10 of the concentration in mol/L.

Inquiry: What does the data say about its pIC50? Entry: `COc1ccc(N2C(=O)c3ccc(Oc4ccc(Oc5ccc(C(=O)O)cc5)cc4)cc3C2=O)cc1`
Reply text: 5.43

Inquiry: What does the data say about its pIC50? Entry: O=C(c1ccc2nonc2c1)N1CCCCC1c1nc2cc(F)ccc2[nH]1 (centres unmarked)
Reply text: 4.90

Inquiry: What does the data say about its pIC50? Entry: `COc1cc2c3c(ccc4c5ccc6c7c(cc(OC)c(c1c34)c75)-c1ccccc1C6=O)-c1ccccc1C2=O`
Reply text: 4.89

Inquiry: What does the data say about its pIC50? Entry: `Cc1ccc2nc(N3C(=O)C(=O)C(=C(O)c4ccc5c(c4)C[C@H](C)O5)[C@@H]3c3cccs3)sc2c1`
Reply text: 4.83

Inquiry: What does the data say about its pIC50? Entry: `O=c1c2cnc3nc(-c4ccc(Cl)cc4)nn3c2ccn1Cc1cccnc1`
Reply text: 4.86

Inquiry: What does the data say about its pIC50? Entry: `O=C(O)c1ccc(-c2ccc(/C=c3\sc4nc5cc(Br)cnc5n4c3=O)o2)cc1`
Reply text: 4.97

Inquiry: What does the data say about its pIC50? Entry: `Cc1ccc(N2NC(=O)/C(=C/c3ccc(-c4ccc5c(c4)C(=O)NC5=O)o3)C2=O)cc1C`
Reply text: 5.05

Inquiry: What does the data say about its pIC50? Entry: `Cc1ccc(-c2noc(-c3cc(N4CCC(C(N)=O)CC4)nc4ccccc34)n2)cc1`
Reply text: 5.16

---

- subject-of-test: recombinant hTREX1(1-242)WT (hT1) (Homo sapiens, UniProt Q9NSU2)
- Construct: recombinant hTREX1(1-242)^WT
- Sequence (Q9NSU2 1-242): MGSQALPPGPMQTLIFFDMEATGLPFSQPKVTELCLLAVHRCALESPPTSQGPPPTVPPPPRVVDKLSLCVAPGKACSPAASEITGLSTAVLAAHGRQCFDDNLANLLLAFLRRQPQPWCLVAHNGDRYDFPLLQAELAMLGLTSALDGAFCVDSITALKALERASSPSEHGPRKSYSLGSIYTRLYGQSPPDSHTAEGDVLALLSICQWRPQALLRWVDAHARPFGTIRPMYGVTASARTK
- run-description: fluorescence-based exonuclease assay, hTREX1 IC50 and HTS
- Assay type: biochemical
- test-context: median of three independent experiments; read-out: Median IC50
Kindly supply the reported IC50 values for the records listed here.
# value in µM; strip the unit string

Inquiry: What does the data say about its IC50? Entry: N#Cc1c(O)nc(SCC(=O)N2c3ccccc3Sc3ccccc32)nc1-c1ccccc1 [TIM183]
Reply text: 8.5

Inquiry: What does the data say about its IC50? Entry: Cn1c(O)c(N=NC(=O)[C@@H]2COc3cc4ccccc4cc3O2)c2cc(Br)ccc21 [TIM191]
Reply text: 8.5

Inquiry: What does the data say about its IC50? Entry: COc1ccc2[nH]c3c(c2c1)CCC[C@H]3NC(=O)COc1ccc2c3c(c(=O)oc2c1)CCCC3 [TIM184]
Reply text: 7

Inquiry: What does the data say about its IC50? Entry: Cc1cc(C)c(S(=O)(=O)Nc2ccc3c(c2)c2c(n3S(=O)(=O)c3cc(C)c(C)cc3C)CCCC2=O)cc1C [TIM146]
Reply text: 15

---

- subject-of-test: recombinant hTREX1(1-242)WT (hT1) (Homo sapiens)
- Construct: recombinant hTREX1(1-242)^WT
- Sequence (Q9NSU2 1-242): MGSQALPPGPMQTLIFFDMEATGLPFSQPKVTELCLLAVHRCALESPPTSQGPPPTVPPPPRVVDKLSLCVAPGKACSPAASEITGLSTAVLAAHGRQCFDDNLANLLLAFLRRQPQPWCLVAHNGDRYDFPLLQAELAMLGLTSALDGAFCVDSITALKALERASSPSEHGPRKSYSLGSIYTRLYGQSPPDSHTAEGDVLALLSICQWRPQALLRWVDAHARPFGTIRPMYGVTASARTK
- run-description: fluorescence-based exonuclease assay, hTREX1 IC50 and HTS
- Format: biochemical
- test-context: experiment 1; read-out: IC50 #1
measured-property: pIC50
The value called pIC50 is obtained by taking minus log10 of the concentration in mol/L.

Inquiry: What does the data say about its pIC50? Entry: `O=C1Nc2ccc(S(=O)(=O)ON3C(=O)c4cccc5cccc(c45)C3=O)c3cccc1c23`
Reply text: 5.62

Inquiry: What does the data say about its pIC50? Entry: `O=C(O)c1ccc(-c2ccc(/C=c3\sc4nc5cc(Br)cnc5n4c3=O)o2)cc1`
Reply text: 4.97

Inquiry: What does the data say about its pIC50? Entry: `O=C1c2ccccc2C(=O)c2c1cc(S(=O)(=O)O)c(O)c2O`
Reply text: 6.52

Inquiry: What does the data say about its pIC50? Entry: `COc1cc2c3c(ccc4c5ccc6c7c(cc(OC)c(c1c34)c75)-c1ccccc1C6=O)-c1ccccc1C2=O`
Reply text: 4.88

---

Kindly supply the reported IC50 values for the records listed here.
- subject-of-test: recombinant hTREX1(1-242)WT (hT1) (Homo sapiens)
- Construct: recombinant hTREX1(1-242)^WT
- run-description: fluorescence-based exonuclease assay, hTREX1 IC50 and HTS
- Format: biochemical
- test-context: experiment 3; read-out: IC50 #3
# value in µM; strip the unit string

Inquiry: What does the data say about its IC50? Entry: O=C(O)c1ccc(-c2ccc(/C=c3\sc4nc5cc(Br)cnc5n4c3=O)o2)cc1 [TIM190]
Reply text: 13.5

Inquiry: What does the data say about its IC50? Entry: Cc1cccc(C(=O)Nc2ccc(-c3cc4ccccc4oc3=O)cc2)c1 [TIM003]
Reply text: 8.8

Inquiry: What does the data say about its IC50? Entry: O=C1c2ccccc2C(=O)c2c1cc(S(=O)(=O)O)c(O)c2O [TIM009]
Reply text: 1.5

Inquiry: What does the data say about its IC50? Entry: Cc1ccc2nc(N3C(=O)C(=O)C(=C(O)c4ccc5c(c4)C[C@H](C)O5)[C@@H]3c3cccs3)sc2c1 [TIM185]
Reply text: 113

Inquiry: What does the data say about its IC50? Entry: O=C(c1ccc2nonc2c1)N1CCCCC1c1nc2cc(F)ccc2[nH]1 (stereo not drawn) [TIM218]
Reply text: 17.8

Inquiry: What does the data say about its IC50? Entry: O=C1c2cccc([N+](=O)[O-])c2C(=O)N1c1cccc(-c2nc3ccccc3c(=O)o2)c1 [TIM136]
Reply text: 10.2

Inquiry: What does the data say about its IC50? Entry: COc1cc2c3c(ccc4c5ccc6c7c(cc(OC)c(c1c34)c75)-c1ccccc1C6=O)-c1ccccc1C2=O [TIM192]
Reply text: 8.1

Inquiry: What does the data say about its IC50? Entry: COc1ccc2[nH]c3c(c2c1)CCC[C@H]3NC(=O)COc1ccc2c3c(c(=O)oc2c1)CCCC3 [TIM184]
Reply text: 7

Inquiry: What does the data say about its IC50? Entry: O=C1Nc2ccc(S(=O)(=O)ON3C(=O)c4cccc5cccc(c45)C3=O)c3cccc1c23 [TIM213]
Reply text: 10.7

---

Kindly supply the reported pIC50 values for the records listed here.
- subject-of-test: recombinant hTREX1(1-242)WT (hT1) (Homo sapiens)
- Construct: recombinant hTREX1(1-242)^WT
- run-description: fluorescence-based exonuclease assay, hTREX1 IC50 and HTS
- Assay type: biochemical
- test-context: experiment 2; read-out: IC50 #2
The value called pIC50 is obtained by taking minus log10 of the concentration in mol/L.

Inquiry: What does the data say about its pIC50? Entry: CC(C)(C)c1ccc(CC2CCN(C(=O)c3cncn3-c3cccc(-c4cccc5c4sc4ccccc45)c3)CC2)cc1 [TIM181]
Reply text: 5.23

Inquiry: What does the data say about its pIC50? Entry: O=C1c2cccc([N+](=O)[O-])c2C(=O)N1c1cccc(-c2nc3ccccc3c(=O)o2)c1 [TIM136]
Reply text: 5.00

Inquiry: What does the data say about its pIC50? Entry: Cc1cnc(/C=C/c2ccccc2)c2[nH]c3ccccc3c12 [TIM047]
Reply text: 5.17

Inquiry: What does the data say about its pIC50? Entry: COc1ccc2[nH]c3c(c2c1)CCC[C@H]3NC(=O)COc1ccc2c3c(c(=O)oc2c1)CCCC3 [TIM184]
Reply text: 5.15

Inquiry: What does the data say about its pIC50? Entry: Cc1ccc(-c2noc(-c3cc(N4CCC(C(N)=O)CC4)nc4ccccc34)n2)cc1 [TIM178]
Reply text: 5.43

Inquiry: What does the data say about its pIC50? Entry: O=C(c1ccc2nonc2c1)N1CCCCC1c1nc2cc(F)ccc2[nH]1 (stereo not drawn) [TIM218]
Reply text: 5.12

// data source = patent US20230278957A1
